# reported self-splicing fitness (ln); entries follow
assay: self-splicing fitness, log relative to wild type (ln ratio); higher = more splicing; Tetrahymena group I intron in knt gene, E. coli kanamycin selection, DiMSum; sequences stand for … in CUCUCU…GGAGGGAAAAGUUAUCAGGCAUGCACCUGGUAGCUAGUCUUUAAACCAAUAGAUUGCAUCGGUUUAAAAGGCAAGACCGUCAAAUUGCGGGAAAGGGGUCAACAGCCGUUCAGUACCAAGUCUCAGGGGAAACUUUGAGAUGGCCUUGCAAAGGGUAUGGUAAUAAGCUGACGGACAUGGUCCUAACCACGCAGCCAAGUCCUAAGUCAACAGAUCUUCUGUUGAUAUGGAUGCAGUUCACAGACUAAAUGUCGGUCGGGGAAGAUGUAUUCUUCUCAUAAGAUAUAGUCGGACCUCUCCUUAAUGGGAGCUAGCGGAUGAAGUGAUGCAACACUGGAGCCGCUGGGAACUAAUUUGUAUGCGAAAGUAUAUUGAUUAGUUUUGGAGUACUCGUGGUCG; settings: 37 °C;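 further: selection with 25 µg/mL kanamycin versus none on LB agar overnight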
Lab note: jot down the number only; don't add units.

Some entries whose results are on file:
| sequence input | self-splicing fitness (ln) |
| --- | --- |
| CUUCAGCAAUAUUACGAUCU | -2.88 |
| UGAGAGCAAUAUUACGCCGC | -2.5 |
| CGACAGCAAUAUUACGUCGA | -2.51 |
| CCCAAGCAAUAUUACGCUGA | -3.69 |
| CAUCAGCAAUAUUACGUCGG | -0.317 |
| CAGAAGCAAUAUUACGUUAC | -2.72 |

The record that follows has no self-splicing fitness (ln) shown yet.
Q: // query self-splicing fitness (ln) value for entry CAAGAGCAAUAUUACGUGGA
Result: -2.43

----------
test: self-splicing fitness, log relative to wild type (ln ratio); higher = more splicing; Tetrahymena group I intron in knt gene, E. coli kanamycin selection, DiMSum; sequences stand for … in CUCUCU…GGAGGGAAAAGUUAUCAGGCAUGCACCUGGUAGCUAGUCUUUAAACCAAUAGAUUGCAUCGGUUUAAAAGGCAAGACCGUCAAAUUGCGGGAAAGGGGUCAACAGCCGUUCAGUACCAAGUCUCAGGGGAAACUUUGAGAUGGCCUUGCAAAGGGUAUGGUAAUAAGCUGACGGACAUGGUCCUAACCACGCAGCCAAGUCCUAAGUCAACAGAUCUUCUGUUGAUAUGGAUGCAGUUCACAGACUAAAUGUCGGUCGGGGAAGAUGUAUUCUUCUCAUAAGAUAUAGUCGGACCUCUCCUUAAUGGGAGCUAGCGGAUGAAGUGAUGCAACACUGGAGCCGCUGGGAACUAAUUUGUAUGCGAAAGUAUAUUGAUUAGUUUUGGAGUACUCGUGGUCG; conditions: 30 °C
assay endpoint: self-splicing fitness (ln)
The response must contain the number and no unit.

Solved entries:
| sequence input | measurement |
| --- | --- |
| ACGCAGCAAUAUUACGCCAG | -2.82 |
| GGCCAGCAAUAUUACGGUUU | -0.995 |
| AAACAGCAAUAUUACGGGUA | -2.58 |
| CCUGAGCAAUAUUACGUACU | -2.04 |
| UAAGAGCAAUAUUACGCCUG | -2.17 |
| GCAAAGCAAUAUUACGCAAU | -3.41 |
| GAUUAGCAAUAUUACGUGCA | -1.7 |
| UGUAAGCAAUAUUACGGACG | -0.142 |
| UAUCAGCAAUAUUACGUCGU | -3.02 |
| AAUGAGCAAUAUUACGGGAC | -2.96 |

Q: Tell me the measured self-splicing fitness (ln) of GCAUAGCAAUAUUACGUAGA , please.
Result: -2.41

Q: I would be grateful if you could share the reported self-splicing fitness (ln) for GCUCAGCAAUAUUACGGGCA .
Result: -1.76

Q: What value of measured self-splicing fitness (ln) is listed for GGGCAGCAAUAUUACGAUAU ?
Result: -0.768

Q: // returns reported self-splicing fitness (ln) for input UUGGAGCAAUAUUACGAAGA
Result: -2.83

Q: Using the record for GCGGAGCAAUAUUACGGCGU , report its self-splicing fitness (ln).
Result: -3.49

Q: What does the data say about its self-splicing fitness (ln)? Entry: AACUAGCAAUAUUACGAAAU
Result: -2.01

Q: If you can, please state the reported self-splicing fitness (ln) value of ACGGAGCAAUAUUACGCAAA .
Result: -2.73

----------
assay: self-splicing fitness, log relative to wild type (ln ratio); higher = more splicing; Tetrahymena group I intron in knt gene, E. coli kanamycin selection, DiMSum; sequences stand for … in CUCUCU…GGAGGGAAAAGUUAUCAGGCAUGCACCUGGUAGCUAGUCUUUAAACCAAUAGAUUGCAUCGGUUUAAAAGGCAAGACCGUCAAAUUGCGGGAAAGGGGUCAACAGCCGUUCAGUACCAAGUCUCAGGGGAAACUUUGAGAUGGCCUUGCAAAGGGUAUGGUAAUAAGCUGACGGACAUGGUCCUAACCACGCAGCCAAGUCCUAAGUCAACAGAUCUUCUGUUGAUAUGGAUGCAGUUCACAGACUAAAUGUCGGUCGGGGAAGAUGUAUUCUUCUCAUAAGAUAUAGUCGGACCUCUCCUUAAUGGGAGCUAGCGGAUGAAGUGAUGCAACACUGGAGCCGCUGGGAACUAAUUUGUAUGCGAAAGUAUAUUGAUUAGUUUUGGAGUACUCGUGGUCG; conditions: 37 °C
Lab note: class by self-splicing fitness (ln), see class A = under -2, class B = from -2 up to -1, class C = -1 and over

| sequence input | group label |
| --- | --- |
| CUUUAGCAAUAUUACGCUAA | class A |
| AGCGAGCAAUAUUACGUGCA | class B |
| UAUUAGCAAUAUUACGCGUU | class C |
| UGGUAGCAAUAUUACGCGGU | class A |
| CUGCAGCAAUAUUACGCCGC | class A |
| ACCAAGCAAUAUUACGGGUU | class A |
| CCAGAGCAAUAUUACGGCGU | class A |
| AUGCAGCAAUAUUACGAUUU | class C |
| UAGAAGCAAUAUUACGUUAG | class C |
| CCGGAGCAAUAUUACGUCUC | class A |

Q: Class? Entry: UUACAGCAAUAUUACGCUUC
Result: class A

Q: Hi there! Could you help me figure out the category for GGUCAGCAAUAUUACGGUUG please?
Result: class C

Q: For CUCGAGCAAUAUUACGGCGA , which self-splicing fitness (ln) bin applies?
Result: class A

Q: Note: place this sequence into its band. Item: AUUCAGCAAUAUUACGAAUA
Result: class B

Q: Which bin should I file GGCUAGCAAUAUUACGAGCA under?
Result: class C

Q: Could you tell me which band AGAGAGCAAUAUUACGGGGG belongs to?
Result: class B

Q: Field: class (self-splicing fitness (ln)) — entry: GGGGAGCAAUAUUACGUUCA
Result: class B

Q: Assign a bin to AAGGAGCAAUAUUACGUACC
Result: class A

Q: Record GUACAGCAAUAUUACGCUAG — which class?
Result: class C

Q: Which category fits this record: CGGAAGCAAUAUUACGCUGA
Result: class B

Q: Classify this sequence: GGAAAGCAAUAUUACGGACG
Result: class C

Q: Hey, which category is AAUCAGCAAUAUUACGAUCU in, do you know?
Result: class C

Q: Please classify: GGCCAGCAAUAUUACGAGGU
Result: class A

Q: Where would AUAAAGCAAUAUUACGUUGA land among the classes by reported self-splicing fitness (ln)?
Result: class B

Q: Lab note: which band did AUAGAGCAAUAUUACGACGA land in?
Result: class C

----------
test: self-splicing fitness, log relative to wild type (ln ratio); higher = more splicing; Tetrahymena group I intron in knt gene, E. coli kanamycin selection, DiMSum; sequences stand for … in CUCUCU…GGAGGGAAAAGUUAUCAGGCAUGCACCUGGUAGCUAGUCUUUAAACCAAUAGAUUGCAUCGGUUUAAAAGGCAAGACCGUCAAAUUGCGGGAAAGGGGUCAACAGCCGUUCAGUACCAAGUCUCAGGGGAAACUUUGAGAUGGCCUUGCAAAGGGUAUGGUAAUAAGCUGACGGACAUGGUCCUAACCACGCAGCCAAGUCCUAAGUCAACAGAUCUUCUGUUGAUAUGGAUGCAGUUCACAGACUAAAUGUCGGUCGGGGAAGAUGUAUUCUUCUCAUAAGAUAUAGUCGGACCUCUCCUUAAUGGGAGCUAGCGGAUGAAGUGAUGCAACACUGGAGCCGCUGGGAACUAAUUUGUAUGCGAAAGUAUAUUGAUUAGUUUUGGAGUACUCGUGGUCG; settings: 30 °C
Decision: self-splicing fitness (ln) >= -3 yields MET, all other cases yield NOT MET.

Observe how each entry below is paired with its result.
| sequence input | group label |
| --- | --- |
| AUAGAGCAAUAUUACGUAAG | MET |
| CACCAGCAAUAUUACGAACA | NOT MET |
| UACAAGCAAUAUUACGCAUG | MET |
| CAGGAGCAAUAUUACGGACG | MET |
| CGCGAGCAAUAUUACGGGAA | NOT MET |
| CUUGAGCAAUAUUACGCUUA | MET |
| GAAGAGCAAUAUUACGGUAC | NOT MET |
| GUGAAGCAAUAUUACGACAU | MET |

Q: self-splicing fitness (ln) >= -3 for CCACAGCAAUAUUACGCGGG ?
Result: NOT MET

Q: Can UCGCAGCAAUAUUACGCGUA be said to have self-splicing fitness (ln) at or above -3?
Result: MET

Q: Check the entry AUACAGCAAUAUUACGUAUC : does self-splicing fitness (ln) equal or exceed -3?
Result: NOT MET

Q: Does the reported self-splicing fitness (ln) for GGCUAGCAAUAUUACGACGU fall at or above the -3 mark?
Result: MET

Q: Could you verify whether the entry GACGAGCAAUAUUACGCUCC shows self-splicing fitness (ln) of no less than -3?
Result: MET

Q: Please check the record CCUAAGCAAUAUUACGGCUC and state if its self-splicing fitness (ln) is at or above -3.
Result: NOT MET

Q: Has CCAGAGCAAUAUUACGCGUG a recorded self-splicing fitness (ln) greater than or equal to -3?
Result: MET

Q: Could you tell me if the measured self-splicing fitness (ln) of GCUGAGCAAUAUUACGAUAA reaches -3 or more?
Result: NOT MET

Q: Decide: self-splicing fitness (ln) of CGCUAGCAAUAUUACGUGAU >= -3?
Result: MET

Q: Dear colleague, could you confirm whether AGACAGCAAUAUUACGAUGU has self-splicing fitness (ln) at or above -3?
Result: NOT MET
